Target: Follistatin (Homo sapiens)
Assay: follistatin binders on small-molecule microarrays, primary screen, biochemical, small-molecule microarray, 635/667 nm fluorescence (AID 1132)
Conditions: FST binding, 635 nm fluorescence, higher = more signal
Let's look at some compounds and their measured composite z-score.
Output: the number by itself.

| Compound | Recorded Result |
| --- | --- |
| COC(=O)Cn1c(C(=O)N2CCCC2)cc2c1C[C@H]1CN(C(=O)c3ccccc3)[C@@](Cc3ccccc3)(C(=O)OC)[C@@H]21 | 0.0488 |
| C[C@H]1COC(=O)[C@H](Cc2ccccc2)NC(=O)[C@@H](C)COC(=O)[C@H](Cc2ccccc2)NC1=O | 0.593 |
| COC(=O)[C@@]1(Cc2ccccc2)[C@H]2c3cc(C(=O)N4CCCC4)n(CCN4CNCC4=O)c3C[C@H]2CN1C(=O)c1ccccc1 | 0.257 |
| COC(=O)[C@H]1[C@@H]2COc3ccccc3[C@H]2N[C@H]1C(=O)OC | 0.214 |

Prompt: Specify composite z-score for `CCCC=C(CCC)[C@@H](NS(=O)(=O)c1cccc(C(F)(F)F)c1)c1ccc(C(=O)OC)cc1` and stop.
Completion: 0.572

Prompt: Specify reported composite z-score for the compound shown: CC1CC/C=C\[C@H]2OC34C=CCN(Cn5nnc6ccccc65)C(=O)[C@H]3N(C(C)CO)C(=O)[C@@H]4C2C(=O)O1 (stereo partly specified)
Completion: -0.491
